target: human P2X2/3 receptor (Homo sapiens (Human), UniProt P56373+Q9UBL9); test: Intracellular calcium measurement (FLIPR, Fluo-4) of antagonist activity at human P2X2/3 receptors; format: cell-based; conditions: human P2X2/3, FLIPR calcium assay, agonist α,β-Me-ATP; read-out: hP2X2/3 IC50
Sequence (P56373 whole entry): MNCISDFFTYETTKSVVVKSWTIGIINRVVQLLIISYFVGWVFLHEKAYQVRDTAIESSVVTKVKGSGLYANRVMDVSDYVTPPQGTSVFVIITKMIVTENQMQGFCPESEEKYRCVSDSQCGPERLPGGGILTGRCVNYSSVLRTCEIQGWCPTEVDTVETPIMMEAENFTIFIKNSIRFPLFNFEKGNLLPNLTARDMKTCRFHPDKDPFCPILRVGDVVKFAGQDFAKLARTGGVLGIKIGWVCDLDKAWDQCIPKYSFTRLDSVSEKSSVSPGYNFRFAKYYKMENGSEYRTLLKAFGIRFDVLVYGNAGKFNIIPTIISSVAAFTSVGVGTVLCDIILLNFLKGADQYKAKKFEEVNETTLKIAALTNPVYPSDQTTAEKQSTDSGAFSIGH
Sequence (Q9UBL9 whole entry): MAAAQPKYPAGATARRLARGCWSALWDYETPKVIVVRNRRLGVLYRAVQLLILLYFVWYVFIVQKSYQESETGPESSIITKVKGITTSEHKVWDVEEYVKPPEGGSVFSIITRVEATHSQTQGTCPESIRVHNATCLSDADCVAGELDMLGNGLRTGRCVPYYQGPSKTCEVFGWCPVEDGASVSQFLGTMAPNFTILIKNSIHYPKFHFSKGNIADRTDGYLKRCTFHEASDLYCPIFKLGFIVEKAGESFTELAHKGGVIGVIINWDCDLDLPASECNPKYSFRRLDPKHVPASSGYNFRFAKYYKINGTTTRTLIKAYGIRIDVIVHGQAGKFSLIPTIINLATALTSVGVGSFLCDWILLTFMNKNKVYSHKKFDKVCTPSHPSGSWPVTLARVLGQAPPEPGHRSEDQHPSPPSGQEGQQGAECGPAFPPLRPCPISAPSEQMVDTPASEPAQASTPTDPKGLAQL
ATTRIBUTE MEASURED: IC50

Sample C[C@@H](NC(=O)c1cc(OC[C@H]2CCCO2)cc(-c2ncc(C3CCC3)s2)c1)c1cnc(C(F)(F)F)nc1 , system: human P2X2/3 receptor (Homo sapiens (Human), UniProt P56373+Q9UBL9). Its IC50 is 128 nM

Sample COC(=O)N1CC2(COc3cc(C(=O)N[C@H](C)c4cnc(C(F)(F)F)nc4)cc(-c4ncc(C)s4)c3)CC1CO2 (stereo partly shown) , system: human P2X2/3 receptor (Homo sapiens (Human), UniProt P56373+Q9UBL9). Its IC50 is 976 nM

Sample Cc1cnc(-c2cc(OC3CC4(CNC4)C3)cc(C(=O)N[C@H](C)c3cnc(C(F)(F)F)nc3)c2)s1 , system: human P2X2/3 receptor (Homo sapiens (Human), UniProt P56373+Q9UBL9). Its IC50 is 1710 nM

Sample Cc1cnc(-c2cc(OC3CCOCC3)cc(C(=O)N[C@H](C)c3nnc(C)s3)c2)s1 , system: human P2X2/3 receptor (Homo sapiens (Human), UniProt P56373+Q9UBL9). Its IC50 is 317 nM

Sample Cc1cnc(-c2cc(OC[C@H]3CN(C)CCO3)cc(C(=O)N[C@H](C)c3ccc(C(F)(F)F)nc3)c2)s1 , system: human P2X2/3 receptor (Homo sapiens (Human), UniProt P56373+Q9UBL9). Its IC50 is 977 nM

Sample CCc1cnc(-c2cc(OC[C@H]3CCCO3)cc(C(=O)N[C@H](C)c3cnc(C)cn3)c2)s1 , system: human P2X2/3 receptor (Homo sapiens (Human), UniProt P56373+Q9UBL9). Its IC50 is 392 nM

Sample Cc1cnc(CNC(=O)c2cc(OC[C@H]3CCOC3)cc(-c3ncc(C)s3)c2)cn1 , system: human P2X2/3 receptor (Homo sapiens (Human), UniProt P56373+Q9UBL9). Its IC50 is ≥ 10000 nM

Sample CCc1cnc(-c2cc(OC[C@H]3CCOC3)cc(C(=O)N[C@H](C)c3cnc(C)cn3)c2)s1 , system: human P2X2/3 receptor (Homo sapiens (Human), UniProt P56373+Q9UBL9). Its IC50 is 96 nM

Sample CCc1cnc(-c2cc(OC[C@H]3CN(C)CCO3)cc(C(=O)N[C@H](C)c3cnc(C(F)(F)F)nc3)c2)s1 , system: human P2X2/3 receptor (Homo sapiens (Human), UniProt P56373+Q9UBL9). Its IC50 is 273 nM

Sample C[C@@H](NC(=O)c1cc(OC[C@H]2CN(C)CCO2)cc(-c2ncc(Cl)s2)c1)c1cnc(C(F)(F)F)nc1 , system: human P2X2/3 receptor (Homo sapiens (Human), UniProt P56373+Q9UBL9). Its IC50 is 506 nM

Sample C#CCOc1cc(C(=O)N[C@H](C)c2cnc(C)nc2)cc(-c2ncc(C)s2)c1 , system: human P2X2/3 receptor (Homo sapiens (Human), UniProt P56373+Q9UBL9). Its IC50 is 1650 nM

Sample Cc1ccc([C@@H](C)NC(=O)c2cc(OC[C@@H]3CCCO3)cc(-c3ncc(C(C)C)s3)c2)nn1 , system: human P2X2/3 receptor (Homo sapiens (Human), UniProt P56373+Q9UBL9). Its IC50 is 1310 nM

Sample COCCOc1cc(C(=O)N[C@H](C)c2cnc(C)nc2)cc(-c2ncc(C)s2)c1 , system: human P2X2/3 receptor (Homo sapiens (Human), UniProt P56373+Q9UBL9). Its IC50 is 2780 nM

Sample C#CCOc1cc(C(=O)N[C@H](C)c2cnc(C)cn2)cc(-c2ncc(C)s2)c1 , system: human P2X2/3 receptor (Homo sapiens (Human), UniProt P56373+Q9UBL9). Its IC50 is 2120 nM

Sample Cc1ccc(Oc2cc(C(=O)N[C@H](C)c3cnc(C(F)(F)F)nc3)cc(-c3ncc(C)s3)c2)cn1 , system: human P2X2/3 receptor (Homo sapiens (Human), UniProt P56373+Q9UBL9). Its IC50 is 83 nM

Sample Cc1ccc([C@@H](C)NC(=O)c2cc(OC[C@@H]3CCOC3)cc(-c3ncc(C)s3)c2)nn1 , system: human P2X2/3 receptor (Homo sapiens (Human), UniProt P56373+Q9UBL9). Its IC50 is 183 nM

Sample C[C@@H](NC(=O)c1cc(OC[C@@H]2CCOC2)cc(-c2ncc(C3CCC3)s2)c1)c1cnc(C(F)(F)F)nc1 , system: human P2X2/3 receptor (Homo sapiens (Human), UniProt P56373+Q9UBL9). Its IC50 is 170 nM

Sample Cc1cnc(-c2cc(OC3C4COCC3CN(C(C)C)C4)cc(C(=O)N[C@H](C)c3cnc(C(F)(F)F)nc3)c2)s1 (stereo partly shown) , system: human P2X2/3 receptor (Homo sapiens (Human), UniProt P56373+Q9UBL9). Its IC50 is 987 nM

Sample Cc1ccc([C@@H](C)NC(=O)c2cc(OC[C@@H]3CCOC3)cc(-c3ncc(C4CCC4)s3)c2)nn1 , system: human P2X2/3 receptor (Homo sapiens (Human), UniProt P56373+Q9UBL9). Its IC50 is 317 nM

Sample CCc1cnc(-c2cc(OC3CCOCC3)cc(C(=O)N[C@H](C)c3ccc(C)nn3)c2)s1 , system: human P2X2/3 receptor (Homo sapiens (Human), UniProt P56373+Q9UBL9). Its IC50 is 91 nM

Sample Cc1ccc(CNC(=O)c2cc(OC[C@H]3CCOC3)cc(-c3ncc(C)s3)c2)nn1 , system: human P2X2/3 receptor (Homo sapiens (Human), UniProt P56373+Q9UBL9). Its IC50 is 6300 nM

Sample Cc1ncc([C@@H](C)NC(=O)c2cc(OCC3CCOCC3)cc(-c3ncc(C(C)C)s3)c2)cn1 , system: human P2X2/3 receptor (Homo sapiens (Human), UniProt P56373+Q9UBL9). Its IC50 is 532 nM

Sample Cc1cnc(-c2cc(O[C@@H]3CCOC3)cc(C(=O)N[C@H](C)c3ccc(C(F)(F)F)nc3)c2)s1 , system: human P2X2/3 receptor (Homo sapiens (Human), UniProt P56373+Q9UBL9). Its IC50 is 534 nM

Sample Cc1cnc(-c2cc(OC[C@H]3CN(C)CCO3)cc(C(=O)NCc3cnc(C(F)(F)F)nc3)c2)s1 , system: human P2X2/3 receptor (Homo sapiens (Human), UniProt P56373+Q9UBL9). Its IC50 is 1210 nM

Sample C#CCOc1cc(C(=O)N[C@@H](C)c2cnc(C(F)(F)F)nc2)cc(-c2ncc(C)s2)c1 , system: human P2X2/3 receptor (Homo sapiens (Human), UniProt P56373+Q9UBL9). Its IC50 is ≥ 10000 nM

* * *

target: human P2X2/3 receptor (Homo sapiens (Human), UniProt P56373+Q9UBL9); assay: Intracellular calcium measurement (FLIPR, Fluo-4) of antagonist activity at human P2X2/3 receptors; assay type: cell-based; conditions: human P2X2/3, FLIPR calcium assay, agonist α,β-Me-ATP; read-out: hP2X2/3 IC50
ATTRIBUTE MEASURED: pIC50
Note on pIC50: it is the negative log10 of concentration, concentration in mol/L.

Value of measured pIC50 for the entry Cc1ccc([C@@H](C)NC(=O)c2cc(OC3COC3)cc(-c3ncc(C)s3)c2)cn1 : 5.86

Value of measured pIC50 for the entry C[C@@H](NC(=O)c1cc(O[C@H]2CCOC2)cc(-c2ncc(Cl)s2)c1)c1ccc(C(F)(F)F)nn1 : 6.20

Value of measured pIC50 for the entry Cc1cnc(-c2cc(O[C@@H]3CCOC3)cc(C(=O)N[C@H](C)c3ccc(C(F)(F)F)nn3)c2)s1 : 6.13

Value of measured pIC50 for the entry Cc1ncc([C@@H](C)NC(=O)c2cc(OC3COC3)cc(-c3ncc(C)s3)c2)cn1 : 5.57

Value of measured pIC50 for the entry CC[C@@H](NC(=O)c1cc(OC2COC2)cc(-c2ncc(C)s2)c1)c1cnc(C(F)(F)F)nc1 : 5.56

Value of measured pIC50 for the entry Cc1cnc(-c2cc(OC[C@@H]3COCCO3)cc(C(=O)N[C@H](C)c3ccc(C(F)(F)F)nn3)c2)s1 : 5.71

Value of measured pIC50 for the entry Cc1cnc(-c2cc(O[C@@H]3CCOC3)cc(C(=O)N[C@H](C)c3cnc(C(F)F)nc3)c2)s1 : 6.52

Value of measured pIC50 for the entry Cc1ccc([C@@H](C)NC(=O)c2cc(OCC3CCOCC3)cc(-c3ncc(C)s3)c2)nn1 : 7.57

Value of measured pIC50 for the entry Cc1cnc(-c2cc(OC3CCN(C(C)C)CC3)cc(C(=O)N[C@H](C)c3ccc(C(F)(F)F)nn3)c2)s1 : 6.24

Value of measured pIC50 for the entry Cc1cnc(-c2cc(OC[C@H]3CN(C(C)C)CCO3)cc(C(=O)N[C@H](C)c3cnc(C(F)(F)F)nc3)c2)s1 : 6.02

Value of measured pIC50 for the entry Cc1cnc(-c2cc(OC3CCN(C)CC3)cc(C(=O)N[C@H](C)c3cnc(C(F)F)nc3)c2)s1 : 6.00

Value of measured pIC50 for the entry COC(=O)N1CCO[C@@H](COc2cc(C(=O)N[C@H](C)c3cnc(C(F)(F)F)nc3)cc(-c3ncc(C)s3)c2)C1 : 6.39
